# Substrate: O=P(O)(O)OC[C@H](O)CO
# assay procedure: coupled MDCC-PBP Pi-biosensor fluorescence assay in lipid cubic phase (monoolein)
# Type: biochemical, Aquifex aeolicus
# settings: co-substrate 3.3-5.2 mol% 16:0-P, pH 8.0, 30 °C, no technical replicates
endpoint label: kcat (s⁻¹)
One number for each entry, in s⁻¹.

- protein: "aaPlsY (Aquifex aeolicus VF5; S142A) (protein, full length, 192 residues, monomer, codon-optimised gene, E. coli BL21(DE3); assays: C-terminal His8 tag (p3EC); crystals: C-terminal His-eGFP removed by 3C protease; DDM-purified, reconstituted in lipid cubic phase) MKALFLVIFAYLLGSITFGEVIAKLKGVDLRNVGSGNVGATNVTRALGKKYGVLVFFLDFLKGFIPALIAVKSFGIDSWVLTFTGLASVLGHMYPVFFGFKGGKGVATALGVVFAVSPSVALFSFLVWLGIFLWKRYVSLAAITATISAFLFLFVAGYPVNVLFMAIVIGALIIYRHRENINRLLTGREHRF"
  kcat / s⁻¹: 4.29
- protein: "aaPlsY (Aquifex aeolicus VF5; H177A) (protein, full length, 192 residues, monomer, codon-optimised gene, E. coli BL21(DE3); assays: C-terminal His8 tag (p3EC); crystals: C-terminal His-eGFP removed by 3C protease; DDM-purified, reconstituted in lipid cubic phase) MKALFLVIFAYLLGSITFGEVIAKLKGVDLRNVGSGNVGATNVTRALGKKYGVLVFFLDFLKGFIPALIAVKSFGIDSWVLTFTGLASVLGHMYPVFFGFKGGKGVATALGVVFAVSPSVALFSFLVWLGIFLWKRYVSLASITATISAFLFLFVAGYPVNVLFMAIVIGALIIYRARENINRLLTGREHRF"
  kcat / s⁻¹: 0.88
- protein: "aaPlsY (Aquifex aeolicus VF5; S35A) (protein, full length, 192 residues, monomer, codon-optimised gene, E. coli BL21(DE3); assays: C-terminal His8 tag (p3EC); crystals: C-terminal His-eGFP removed by 3C protease; DDM-purified, reconstituted in lipid cubic phase) MKALFLVIFAYLLGSITFGEVIAKLKGVDLRNVGAGNVGATNVTRALGKKYGVLVFFLDFLKGFIPALIAVKSFGIDSWVLTFTGLASVLGHMYPVFFGFKGGKGVATALGVVFAVSPSVALFSFLVWLGIFLWKRYVSLASITATISAFLFLFVAGYPVNVLFMAIVIGALIIYRHRENINRLLTGREHRF"
  kcat / s⁻¹: 0.64

Now consider the entry below.
Could you please provide reported kcat for aaPlsY (Aquifex aeolicus VF5; T41A) (protein, full length, 192 residues, monomer, codon-optimised gene, E. coli BL21(DE3); assays: C-terminal His8 tag (p3EC); crystals: C-terminal His-eGFP removed by 3C protease; DDM-purified, reconstituted in lipid cubic phase) MKALFLVIFAYLLGSITFGEVIAKLKGVDLRNVGSGNVGAANVTRALGKKYGVLVFFLDFLKGFIPALIAVKSFGIDSWVLTFTGLASVLGHMYPVFFGFKGGKGVATALGVVFAVSPSVALFSFLVWLGIFLWKRYVSLASITATISAFLFLFVAGYPVNVLFMAIVIGALIIYRHRENINRLLTGREHRF ? Thanks!
0.64
